# target_system: 5-HT1AR (serotonin 1A receptor) (Homo sapiens)
# Sequence (P08908 1-422): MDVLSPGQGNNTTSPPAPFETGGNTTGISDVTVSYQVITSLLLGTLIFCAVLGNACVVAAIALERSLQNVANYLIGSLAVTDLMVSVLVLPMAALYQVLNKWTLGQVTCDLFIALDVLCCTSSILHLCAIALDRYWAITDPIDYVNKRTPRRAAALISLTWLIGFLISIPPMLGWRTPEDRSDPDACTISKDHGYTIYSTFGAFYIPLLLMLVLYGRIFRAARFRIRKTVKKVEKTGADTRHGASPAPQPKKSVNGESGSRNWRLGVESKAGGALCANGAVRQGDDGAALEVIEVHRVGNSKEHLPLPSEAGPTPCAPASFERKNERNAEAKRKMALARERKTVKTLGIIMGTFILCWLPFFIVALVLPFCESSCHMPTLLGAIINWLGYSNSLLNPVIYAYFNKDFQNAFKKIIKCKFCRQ
# test_details: G protein nanoBRET
A collection of molecules and their measured pEC50
On this scale, pEC50 is minus log10 of a concentration expressed in M (mol/L).

What does the record list as pEC50 for Cc1cnc(CNCC2(F)CCN(C(=O)c3ccc(F)c(Cl)c3)CC2)nc1 [F-15599] ?
6.27

What does the record list as pEC50 for O=c1[nH]c2ccccc2n1CCN1CCN(c2cccc(C(F)(F)F)c2)CC1 [Flibanserin] ?
6.77

What does the record list as pEC50 for COc1cc2c3c(c1OC)-c1ccccc1C[C@H]3N(C)CC2 [Nuciferine] ?
4.78
